Test system: HepG2 cells
assayInfo: MTT human cell cytotoxicity testing
Format: cell-based
particulars: SAR figures; 4× MIC exposure for 24 h
readoutType: MTT = % HepG2 cell survival (%)
Give just the numeric value; % need not be written.

Some solved cases for reference:
{"compound": "COc1ccc(NC(=O)c2c(NC(=O)C(F)(F)F)sc3c2CCCCC3)cc1 [JR6]", "valueReported": 53.3}
{"compound": "CC1CCN(C(=O)Nc2cc(Cl)cc(Cl)c2)CC1 [JC1]", "valueReported": 63}
{"compound": "CC(=O)Nc1sc2c(c1C(=O)Nc1ccc(Cl)cc1)CCCCC2 [JR1b]", "valueReported": 84.9}
{"compound": "O=C(Nc1ccccc1Cl)c1c(NC(=O)C(F)(F)F)sc2c1CCCC2 [JR2b]", "valueReported": 59.5}
{"compound": "O=C(Nc1cc(Cl)cc(Cl)c1)N1CCCCC1 [JC4]", "valueReported": 71.4}

Ask | What MTT = % HepG2 cell survival value was documented for this compound, O=C(Nc1ccc(Cl)cc1)c1c(NC(=O)C(F)(F)F)sc2c1CCCCC2 [JR1] ?
Reply | 80.6

Ask | What MTT = % HepG2 cell survival value was documented for this compound, CC1CCCCN1C(=O)Nc1cc(Cl)cc(Cl)c1 (stereo not shown) [JC2] ?
Reply | 87

Ask | What MTT = % HepG2 cell survival value was documented for this compound, CN1CCN(C(=O)Nc2cc(Cl)cc(Cl)c2)CC1 [JC6] ?
Reply | 61.6

Ask | What MTT = % HepG2 cell survival value was documented for this compound, CCCN1CCN(C(=O)Nc2cc(Cl)cc(Cl)c2)CC1 [JC8] ?
Reply | 109

Ask | What MTT = % HepG2 cell survival value was documented for this compound, O=C(Nc1ccccc1Cl)c1c(NC(=O)C(F)(F)F)sc2c1CCCCC2 [JR2] ?
Reply | 85.3
